Provenance of the data: BigSolDB 2.1

conditions: in methyl acetate, 283.25 K
Measurement Type: solubility (mole fraction)
Field format: numeric only.

**Query** Value lookup for solubility (mole fraction); key = C=CC(=O)NC(C)(C)CC(C)=O
**Result** 0.294

====

conditions: in n-pentanol, 318.85 K
Measurement Type: solubility (mole fraction)
// return a plain number; no unit text

**Query** Data request, read-out solubility (mole fraction), for C=CC(=O)NC(C)(C)CC(C)=O
**Result** 0.775

====

conditions: in n-propanol, 313.65 K
Measurement Type: solubility (mole fraction)
// response body must contain only the number

**Query** Entry C=CC(=O)NC(C)(C)CC(C)=O has what solubility (mole fraction)?
**Result** 0.71
